# TEST PROTOCOL: protein stability index of a GFP-peptide fusion (yeast GPS) (PSI 1-4); higher = more stable; sorted into four equal gates, so the index is relative within each strain
# RUN PARAMETERS: pdr5∆
OBSERVABLE: protein stability index
// return just the number, without any unit appended

INPUT SEQUENCE | protein stability index
IEDPNLSSNITFDGKPT [YMR153W/NUP53] | 3.06
YGFSNKEYISRLWHTLK [SNF5] | 2.56
TVSILQESSSLRLLEVT [POP8] | 2.38
YTNSVELRSLSKKDFKI [YMR129W/POM152] | 2.64
LDNMTYSSVAGTVSRVN [RRP4] | 2.52

Inquiry: Recorded protein stability index for ISLRNNHKIIARVKAFD [SMD2] , please?
Reply text: 2.02

Inquiry: Recorded protein stability index for KNTQSPQTPLVEPVTER [SNU114] , please?
Reply text: 2.87

Inquiry: Recorded protein stability index for ITGNKIMRILKSNGLAP [RPS13] , please?
Reply text: 3.32

Inquiry: Recorded protein stability index for TKFQTTDRESYPRLQDP [YCS4] , please?
Reply text: 3.15

Inquiry: Recorded protein stability index for GYDIFLNVVLDDAMEIN [SMX2] , please?
Reply text: 3.07

* * *

# TEST PROTOCOL: protein stability index of a GFP-peptide fusion (yeast GPS) (PSI 1-4); higher = more stable; sorted into four equal gates, so the index is relative within each strain
# RUN PARAMETERS: ubr1∆
protein stability index values, listed per item

INPUT SEQUENCE | protein stability index
LNDEYNYPQLTEDILKE [YCS4] | 3.49
DYSEIQRSRRKFSERRK [DSN1] | 2.75

Inquiry: Recorded protein stability index for SSNILEDILYYSTCPSE [SRB8] , please?
Reply text: 2.54

Inquiry: Recorded protein stability index for ELQIFKTANSSSDAFEK [YIL149C/MLP2] , please?
Reply text: 2.75

* * *

# TEST PROTOCOL: protein stability index of a GFP-peptide fusion (yeast GPS) (PSI 1-4); higher = more stable; sorted into four equal gates, so the index is relative within each strain
# RUN PARAMETERS: ubr1∆
OBSERVABLE: protein stability index
// return just the number, without any unit appended

Completed entries (count: 3):
INPUT SEQUENCE | protein stability index
SEDSAVFKATSSTDEES [FAS1] | 2.98
AGKADTSIRLEGDELEN [SRB4] | 3.25
INSSNEALVQAFAFCIP [YCG1] | 2.09

Inquiry: Recorded protein stability index for FVDLVEHFLKLNIDFGS [YML103C/NUP188] , please?
Reply text: 2.84

Inquiry: Recorded protein stability index for AKITEIGSTSKRPIESG [YIL149C/MLP2] , please?
Reply text: 3.31

Inquiry: Recorded protein stability index for SAGLDSAQQNLASSFVN [RPN1] , please?
Reply text: 3.2

* * *

# TEST PROTOCOL: protein stability index of a GFP-peptide fusion (yeast GPS) (PSI 1-4); higher = more stable; sorted into four equal gates, so the index is relative within each strain
# RUN PARAMETERS: ubr1∆
Label 1 for high-side protein stability index (at or above 3) and 0 for low-side protein stability index (below it).

Record excerpt, results attached:
INPUT SEQUENCE | LABEL CLASS
IYQHLASHNEKDQDSQI [SRP72] | 0
LVDLKKELAELKVQKLS [RPL35A] | 0

Inquiry: Entry AALGEVASMELKPTNDM [SIR2] : is its protein stability index no less than 3?
Reply text: 1

Inquiry: Entry IFERMIEKCLKASELKL [RPN2] : is its protein stability index no less than 3?
Reply text: 0

Inquiry: Entry KKQVHVYRFVTENAIEE [ISW2] : is its protein stability index no less than 3?
Reply text: 0

Inquiry: Entry MSQSTASLVPEGNQGSL [MED8] : is its protein stability index no less than 3?
Reply text: 0

Inquiry: Entry QRKKQSDVLRFLQRVRV [RPL15A] : is its protein stability index no less than 3?
Reply text: 0

Inquiry: Entry CWLSSVDVNTQKSFEQL [RPN11] : is its protein stability index no less than 3?
Reply text: 0

Inquiry: Entry VFSESCSNESFASIPVS [SNU114] : is its protein stability index no less than 3?
Reply text: 1

Inquiry: Entry LAKKWFLQHPDEEYPVK [PRP8] : is its protein stability index no less than 3?
Reply text: 0

Inquiry: Entry LNFYITNVPKAKKRKTL [SIR3] : is its protein stability index no less than 3?
Reply text: 0

Inquiry: Entry KYKSGGKFSFSPLQKEE [SSN2] : is its protein stability index no less than 3?
Reply text: 0

Inquiry: Entry THKVTDIYSHEYKVITS [YMR129W/POM152] : is its protein stability index no less than 3?
Reply text: 0

Inquiry: Entry TSLITAVYGPRSIRGSF [MTR3] : is its protein stability index no less than 3?
Reply text: 0

Inquiry: Entry EILILINDPTNKEYTLV [SIN4] : is its protein stability index no less than 3?
Reply text: 0

Inquiry: Entry IGVVSLTNGVTEHVRQN [RRP6] : is its protein stability index no less than 3?
Reply text: 1

Inquiry: Entry DVAFADGGKTLRACAAN [YMR129W/POM152] : is its protein stability index no less than 3?
Reply text: 0

Inquiry: Entry APAFHTSGKVELPKKLL [SRB8] : is its protein stability index no less than 3?
Reply text: 0

Inquiry: Entry ENRKKDESDSENDIEIK [YLR335W/NUP2] : is its protein stability index no less than 3?
Reply text: 0

Inquiry: Entry KFSERRKALPKEPKKLL [DSN1] : is its protein stability index no less than 3?
Reply text: 0

Inquiry: Entry SYLSNSLDTSASTINGA [YML103C/NUP188] : is its protein stability index no less than 3?
Reply text: 0

Inquiry: Entry YVSALKRINKFLDSVHK [POP7] : is its protein stability index no less than 3?
Reply text: 0

Inquiry: Entry AGLDEDGKGAVYSFDPV [PRE7] : is its protein stability index no less than 3?
Reply text: 0

Inquiry: Entry LTRFSHDADLEVSMNSI [RPN1] : is its protein stability index no less than 3?
Reply text: 1

Inquiry: Entry LLKKELLTIEPKLKEAT [SMC2] : is its protein stability index no less than 3?
Reply text: 1

Inquiry: Entry PSDMVIPDHLAELIPEL [SNF12] : is its protein stability index no less than 3?
Reply text: 0

Inquiry: Entry KQFDSIFNSNKAKIIPG [SIR4] : is its protein stability index no less than 3?
Reply text: 0

Inquiry: Entry VSQVRVVPNEKADDDSV [ASC1] : is its protein stability index no less than 3?
Reply text: 0
